Hello, the source for this data is patent US6090786A, in case you need it.

So I've got a bunch of molecules here, and I need their stability of the adduct at room temperature values.
system: DPPIV (Homo sapiens)
Construct: from tissue; host or cells: prostasomes from human seminal plasma, purified on immobilized adenosine deaminase
Sequence (P27487 whole entry): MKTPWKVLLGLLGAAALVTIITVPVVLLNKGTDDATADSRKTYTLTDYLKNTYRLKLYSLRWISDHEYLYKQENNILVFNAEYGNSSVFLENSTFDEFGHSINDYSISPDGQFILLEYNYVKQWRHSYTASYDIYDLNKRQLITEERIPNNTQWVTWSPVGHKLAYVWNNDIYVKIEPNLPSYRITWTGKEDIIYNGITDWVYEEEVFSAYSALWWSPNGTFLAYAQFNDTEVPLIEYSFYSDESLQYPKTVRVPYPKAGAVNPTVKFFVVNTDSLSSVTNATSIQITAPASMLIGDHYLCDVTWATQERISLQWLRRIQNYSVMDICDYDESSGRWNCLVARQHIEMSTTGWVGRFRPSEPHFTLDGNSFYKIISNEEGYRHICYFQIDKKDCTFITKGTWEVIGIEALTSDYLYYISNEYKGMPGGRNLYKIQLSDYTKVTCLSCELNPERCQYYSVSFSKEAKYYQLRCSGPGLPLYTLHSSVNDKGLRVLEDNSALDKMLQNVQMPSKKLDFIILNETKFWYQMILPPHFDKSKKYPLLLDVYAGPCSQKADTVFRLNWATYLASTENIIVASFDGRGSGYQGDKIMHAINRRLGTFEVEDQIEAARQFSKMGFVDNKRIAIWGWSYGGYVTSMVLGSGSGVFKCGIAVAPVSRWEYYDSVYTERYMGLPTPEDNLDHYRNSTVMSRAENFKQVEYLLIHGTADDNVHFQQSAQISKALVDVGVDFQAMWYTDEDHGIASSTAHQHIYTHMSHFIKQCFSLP
assay.notes: Stability of the inhibitor-DPPIV adduct
Assay type: biochemical
recorded.conditions: DPPIV incubated with 0.5 mM inhibitor 1 hour, excess removed by gel filtration

Examples with answers:
• Cl.N[C@@H](Cc1ccc(F)cc1)C(=O)N1CCC[C@H]1P(=O)(Oc1ccccc1)Oc1ccccc1 = > 4 weeks
• Cl.N[C@@H](Cc1ccccc1)C(=O)N1CCC[C@H]1P(=O)(Oc1ccccc1)Oc1ccccc1 = > 3 weeks
• C[C@H](N)C(=O)N1CCCC1P(=O)(Oc1ccccc1)Oc1ccccc1.Cl (stereo partly shown) = > 4 weeks

Turning now to a further molecule:
Input: Suppose we examine the molecule CC[C@H](C)[C@H](N)C(=O)N1CCCC1P(=O)(Oc1ccccc1)Oc1ccccc1.Cl (stereo partly shown) ; what stability of the adduct at room temperature value has been reported?
Output: > 3 weeks
